Here, each record is paired with measured IC50 data.
Target: Icmt (Homo sapiens, UniProt O60725)
Sequence (O60725 whole entry, the tested form may be a part): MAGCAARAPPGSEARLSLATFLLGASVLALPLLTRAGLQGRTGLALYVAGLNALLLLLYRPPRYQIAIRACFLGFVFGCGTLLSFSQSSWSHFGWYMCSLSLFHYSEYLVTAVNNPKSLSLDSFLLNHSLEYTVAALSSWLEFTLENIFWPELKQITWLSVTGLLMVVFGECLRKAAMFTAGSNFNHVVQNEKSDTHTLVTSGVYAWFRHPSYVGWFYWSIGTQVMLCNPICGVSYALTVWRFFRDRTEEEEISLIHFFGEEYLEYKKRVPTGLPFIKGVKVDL
Experiment: Vapor diffusion assay
Details: read-out: Human Icmt IC50; VDA; 25 μM AFC, 20 μM 14C-SAM, 30 min at 30°C
endpoint: IC50 (µM)

[
  {
    "record-smiles": "CC(C)=CCC/C(C)=C/CC/C(C)=C/CSC[C@H](NC(=O)[C@]12CCC(CC1=O)C2(C)C)C(=O)O",
    "study-target": "Icmt (Homo sapiens, UniProt O60725)",
    "endpoint": "IC50",
    "measurement": 15.6
  },
  {
    "record-smiles": "CC(C)=CCC/C(C)=C/CC/C(C)=C/CSC[C@H](NC(=O)CO[C@@H]1C[C@H](C)CC[C@H]1C(C)C)C(=O)O",
    "study-target": "Icmt (Homo sapiens, UniProt O60725)",
    "endpoint": "IC50",
    "measurement": 22.9
  },
  {
    "record-smiles": "CC(C)=CCC/C(C)=C/CC/C(C)=C/CSC[C@H](NC(=O)CC12CC3CC(CC(C3)C1)C2)C(=O)O",
    "study-target": "Icmt (Homo sapiens, UniProt O60725)",
    "endpoint": "IC50",
    "measurement": 18.8
  },
  {
    "record-smiles": "CCCCCC12CCC(C(=O)N[C@@H](CSC/C=C(\\C)CC/C=C(\\C)CCC=C(C)C)C(=O)O)(CC1)CC2",
    "study-target": "Icmt (Homo sapiens, UniProt O60725)",
    "endpoint": "IC50",
    "measurement": 16.7
  }
]

----------
Measured pIC50, listed per entry.
Biological target: Icmt (Homo sapiens)
Test: Vapor diffusion assay
Conditions: read-out: Human Icmt IC50; VDA; 25 μM AFC, 20 μM 14C-SAM, 30 min at 30°C
pIC50: −log10 of the molar value.

[
  {
    "compound": "CC(C)=CCC/C(C)=C/CC/C(C)=C/CSC[C@H](NC(=O)c1ccccc1-c1ccccc1)C(=O)O [4f]",
    "pIC50": 4.92
  },
  {
    "compound": "CC(C)=CCC/C(C)=C/CC/C(C)=C/CSC[C@H](NC(=O)c1ccccc1Oc1ccccc1)C(=O)O [5e]",
    "pIC50": 5.37
  },
  {
    "compound": "CC(C)=CCC/C(C)=C/CC/C(C)=C/CSC[C@H](NC(=O)C12CC3CC(CC1C3)C2)C(=O)O [4b]",
    "pIC50": 4.78
  }
]
